Taken from the supplement of paper PMC8728848.

For each entry below, report its glycan array binding signal (z-score) value.
Biological target: Gal(a1-3)Gal(b1-4)[Fuc(a1-3)]GlcNAc
Assay: glycan array binding signal (z-score within array); higher = stronger binding
Conditions: glycan notation: IUPAC condensed, linker removed
Only a selection was taken, and the strongest signals are over-represented in it overall.
Numbers only.

The cases that follow already have their glycan array binding signal (z-score) on record.
LysMD3 (Homo sapiens), Q7Z3D4 (protein) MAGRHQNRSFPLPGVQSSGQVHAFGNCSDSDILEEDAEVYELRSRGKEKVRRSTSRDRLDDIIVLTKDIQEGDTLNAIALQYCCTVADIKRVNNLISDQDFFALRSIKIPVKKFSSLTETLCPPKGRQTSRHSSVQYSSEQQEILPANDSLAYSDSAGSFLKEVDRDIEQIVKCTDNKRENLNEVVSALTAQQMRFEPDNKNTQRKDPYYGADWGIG : 0.873
Erv41-EDTA (Saccharomyces cerevisiae), Q04651 (protein) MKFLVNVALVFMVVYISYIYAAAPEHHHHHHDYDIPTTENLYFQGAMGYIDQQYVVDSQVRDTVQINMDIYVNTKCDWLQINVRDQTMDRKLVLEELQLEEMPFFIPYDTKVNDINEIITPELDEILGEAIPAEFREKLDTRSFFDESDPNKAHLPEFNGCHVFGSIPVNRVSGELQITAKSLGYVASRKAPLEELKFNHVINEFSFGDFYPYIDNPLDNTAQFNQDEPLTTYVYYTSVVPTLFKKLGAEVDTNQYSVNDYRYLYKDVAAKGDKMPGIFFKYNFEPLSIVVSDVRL : -0.74

Answer with the recorded glycan array binding signal (z-score) for the binder listed here: Clec49 (Caenorhabditis elegans) (protein) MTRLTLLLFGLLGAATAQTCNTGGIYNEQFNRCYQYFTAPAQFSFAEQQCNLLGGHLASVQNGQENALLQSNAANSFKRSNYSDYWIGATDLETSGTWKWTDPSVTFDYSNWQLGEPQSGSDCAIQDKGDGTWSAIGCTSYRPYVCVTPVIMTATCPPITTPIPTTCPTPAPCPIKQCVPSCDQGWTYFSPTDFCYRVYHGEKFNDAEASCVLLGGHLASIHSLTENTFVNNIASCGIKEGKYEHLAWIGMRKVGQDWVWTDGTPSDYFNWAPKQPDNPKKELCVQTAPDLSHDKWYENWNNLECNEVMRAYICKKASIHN
0.246
